test system: Lung; test: Biodistribution in ICR mouse lung at 5 to 10 uCi, iv after 2 mins; assay type: ADME, organism-based; details: in vivo
EXPERIMENTAL ENDPOINT: Drug uptake (% ID/g)

CNc1ccc(C#Cc2ccc(OCCOCC[18F])cc2)cc1; 6.57
CN(C)c1ccc(C#Cc2ccc(OCCOCCOCC[18F])cc2)cc1; 8.38

I. CN(C)c1ccc(C#Cc2ccc(OCCOCC[18F])cc2)cc1
II. CNc1ccc(C#Cc2ccc(OCCOCCOCC[18F])cc2)cc1
Exercise: // task: argmin of Drug uptake over [ I , II ] Answer by quoting the chosen item's label.
Key: II

###

system: Kidney; experiment: Biodistribution in ICR mouse kidney at 5 to 10 uCi, iv after 1 hr; type: ADME, organism-based; settings: in vivo
EXPERIMENTAL ENDPOINT: Drug uptake (% ID/g)

Below: 2 compounds and their reported Drug uptake.
CNc1ccc(C#Cc2ccc(OCCOCCOCC[18F])cc2)cc1; 2.4
CN(C)c1ccc(C#Cc2ccc(OCCOCC[18F])cc2)cc1; 4.79

P. CNc1ccc(C#Cc2ccc(OCCOCC[18F])cc2)cc1
Q. CN(C)c1ccc(C#Cc2ccc(OCCOCCOCC[18F])cc2)cc1
Exercise: // task: argmin of Drug uptake over [ P , Q ] Answer by quoting the chosen item's label.
Key: Q

###

biological target: Amyloid-beta precursor protein (Homo sapiens, UniProt P05067)
Sequence (P05067 whole entry): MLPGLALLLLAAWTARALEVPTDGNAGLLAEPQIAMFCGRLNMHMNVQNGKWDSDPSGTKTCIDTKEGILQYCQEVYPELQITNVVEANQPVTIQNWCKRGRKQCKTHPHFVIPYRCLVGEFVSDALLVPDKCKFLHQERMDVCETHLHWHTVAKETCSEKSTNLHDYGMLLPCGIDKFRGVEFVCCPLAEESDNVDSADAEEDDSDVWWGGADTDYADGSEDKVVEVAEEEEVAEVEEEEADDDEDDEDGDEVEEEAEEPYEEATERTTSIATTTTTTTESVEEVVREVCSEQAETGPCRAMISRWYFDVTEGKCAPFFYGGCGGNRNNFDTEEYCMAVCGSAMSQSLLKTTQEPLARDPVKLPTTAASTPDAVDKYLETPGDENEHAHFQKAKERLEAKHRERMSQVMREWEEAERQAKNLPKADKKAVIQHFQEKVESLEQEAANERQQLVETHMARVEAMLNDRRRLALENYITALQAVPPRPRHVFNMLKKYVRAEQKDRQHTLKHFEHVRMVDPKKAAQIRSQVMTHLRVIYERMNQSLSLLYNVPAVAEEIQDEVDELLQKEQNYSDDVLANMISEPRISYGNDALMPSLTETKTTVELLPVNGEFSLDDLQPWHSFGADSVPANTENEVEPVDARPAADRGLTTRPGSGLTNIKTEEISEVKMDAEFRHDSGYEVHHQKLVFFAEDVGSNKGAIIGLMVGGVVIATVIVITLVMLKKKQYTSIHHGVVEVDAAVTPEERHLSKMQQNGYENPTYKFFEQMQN
EXPERIMENTAL ENDPOINT: Ki (nM)

Below: 5 molecules and their reported Ki.
Nc1ccc(C#Cc2ccc(OCCOCCF)cc2)cc1; 12
C(#Cc1ccccc1)c1ccccc1; 175
CNc1ccc(C#Cc2ccc(OCCOCCOCCO)cc2)cc1; 4.5
Oc1ccc(C#Cc2ccc(OCCOCCOCCF)cc2)cc1; 16.5
CN(C)c1ccc(C#Cc2ccc(OCCOCCOCCO)cc2)cc1; 3.4

I. CNc1ccc(C#Cc2ccc(OCCOCCF)cc2)cc1
II. CN(C)c1ccc(C#Cc2ccc(OCCOCCOCCF)cc2)cc1
Exercise: // task: argmin of Ki over [ I , II ] Answer by quoting the chosen item's label.
Key: I
(I: 1.2 nM, II: 2.9 nM)

###

tested on: Liver; test: Biodistribution in ICR mouse liver at 5 to 10 uCi, iv after 2 hrs; assay type: ADME, organism-based; conditions: in vivo
EXPERIMENTAL ENDPOINT: Drug uptake (% ID/g)

Below: 2 molecules and their reported Drug uptake.
CN(C)c1ccc(C#Cc2ccc(OCCOCC[18F])cc2)cc1; 8.85
CNc1ccc(C#Cc2ccc(OCCOCCOCC[18F])cc2)cc1; 9.14

P. CN(C)c1ccc(C#Cc2ccc(OCCOCCOCC[18F])cc2)cc1
Q. CNc1ccc(C#Cc2ccc(OCCOCC[18F])cc2)cc1
Exercise: Of the two listed items, P and Q , which carries the larger Drug uptake figure? Answer by quoting the chosen item's label.
Key: Q
